pKi: −log10 of the molar value.
Several publications report pKi on Aurora kinase A (Homo sapiens); those values are gathered here.

Examples with answers:
- Compound: "CCc1ccccc1Sc1nc(Nc2cc(C)[nH]n2)c2ccccc2n1"
  pKi: "> 7.00"
- Compound: "NCc1ccc(-c2cnc3c(-c4ccccn4)c(N)nn3c2)cc1"
  pKi: "> 6.30"
- Compound: "Cn1cc(Nc2ncc(C(N)=O)c(NC3C4C=CC(C4)C3C(N)=O)n2)cn1 (mixture of isomers)"
  pKi: "> 7.00"
- Compound: "CC(C)N(C)C(=O)c1ccc(-c2cnc3c(-c4ccccn4)c(N)nn3c2)nc1"
  pKi: "> 6.30"
- Compound: "C[C@@H](O)Cn1cc(Nc2ncc(Cl)c(N[C@@H]3[C@H]4CC[C@H](C4)[C@@H]3C(N)=O)n2)cn1"
  pKi: "> 7.00"
- Compound: "CCOc1ccc(C2=NNC(=O)C2=NNc2ccc(N3CCOCC3)cc2)cc1OCC"
  pKi: "> 7.00"

Inquiry: Item under review: COc1cccc2c(Nc3cc(C)[nH]n3)nc(Sc3ccc(NS(C)(=O)=O)cc3)nc12 . Reported pKi?
Reply text: > 7.00

Inquiry: # repeat for Nc1nn2cc(C#CCO)cnc2c1-c1ccccn1
Reply text: 5.30 to 6.30

Inquiry: # repeat for CCN(CC)c1ccc(N/N=C2\C(=O)NN=C2c2ccc(OC)c(OC)c2)cc1
Reply text: > 7.00

Inquiry: # repeat for Cc1noc(-c2c[nH]c3ncccc23)c1-c1cccc(F)c1F
Reply text: 6.00 to 6.70

Inquiry: # repeat for Cc1cc(Nc2cc(C)c(C#N)c(NCCOc3ccncc3)n2)n[nH]1
Reply text: 7.62

Inquiry: # repeat for Fc1cc(F)c2[nH]nc(Nc3nc(-c4cccnc4Cl)nc4ccccc34)c2c1
Reply text: 6.00 to 7.00

Inquiry: # repeat for Cc1cc(Nc2nc(-c3ccccc3)nc3c2CCCC3)n[nH]1
Reply text: > 7.00

Inquiry: # repeat for NC(=O)[C@@H]1[C@H](Nc2nc(Nc3cnn(Cc4ccccc4Cl)c3)ncc2Cl)[C@H]2C=C[C@@H]1C2
Reply text: > 7.00

Inquiry: # repeat for FC(F)(F)c1ccccc1-c1nc(Nc2cc[nH]n2)c2ccccc2n1
Reply text: 6.00 to 7.00

Inquiry: # repeat for CCOC(=O)[C@@H]1[C@H](Nc2nc(Nc3cnn(C)c3)ncc2F)[C@H]2C=C[C@@H]1C2.CCOC(=O)[C@H]1[C@@H](Nc2nc(Nc3cnn(C)c3)ncc2F)[C@@H]2C=C[C@H]1C2 (mixture of isomers)
Reply text: < 5.30

Inquiry: # repeat for Cc1cnc2c(-c3cc(N[C@H](C)CO)ncn3)c(N)nn2c1
Reply text: 5.30 to 6.30
